test system: CP291; assay: qHTS profiling for inhibitors of Plasmodium falciparum proliferation (AID 504749); note: nearly all actives have a fitted effect of over 60% in size; settings: P. falciparum in erythrocytes, SYBR Green DNA, 72 h; series mostly up to 28.7 µM
Inconclusive results are not listed. Activity calls are given as the source filed them. Calls come from the whole dose curve; as a rule, active = well fitted inhibition curve with a large enough effect; inconclusive = small, poorly fitted or top-dose-only effect; inactive = flat fitted curve, though single readings scatter.
Give one outcome, nothing more. List: active, inactive

Query block: // outcome(item) with item = CC(C)c1ncc([N+](=O)[O-])n1C
Result block: inactive

Query block: Record request — test call for Cc1nc(NS(=O)(=O)c2ccc(N)cc2)nc(C)c1Br
Result block: inactive

Query block: Test call for this compound, please: COC(=O)CC[C@H](N)C(=O)O
Result block: inactive

Query block: Status in this test for CC1(O)CCC(C(C)(C)O)CC1 (stereo not drawn) ?
Result block: inactive

Query block: Assay outcome for CC(C)CCCC(C)NC(C)C (stereo not drawn) : what was it?
Result block: inactive

Query block: Could you kindly confirm the outcome this assay logged for OC[C@H]1O[C@@](CO)(O[C@H]2O[C@H](CO)[C@@H](O)[C@H](O)[C@H]2O)[C@@H](O)[C@@H]1O ?
Result block: inactive

Query block: I would be grateful if you could indicate the recorded call for Cc1ccc(S(=O)(=O)NCl)cc1 .
Result block: inactive

Query block: Please indicate how the test categorized OCl .
Result block: inactive

Query block: Hi team, can someone confirm the assay call for CCCCC ?
Result block: inactive

Query block: Given CCOC(C)OCC , state the outcome it received in this test.
Result block: inactive

Query block: Hi, sorry to bother you, what did the test record for CC(C)c1nc(N(C)S(C)(=O)=O)nc(-c2ccc(F)cc2)c1/C=C/C(O)CC(O)CC(=O)O (stereo not drawn) ?
Result block: inactive

Query block: Given O=C(O)/C=C/c1ccccc1 , state the outcome it received in this test.
Result block: inactive

Query block: Please indicate how the test categorized O=C(O)Cc1cc(I)c(Oc2ccc(O)c(I)c2)c(I)c1 .
Result block: inactive

Query block: Any idea what this test logged for OCC(O)CO ?
Result block: inactive

Query block: Look up the recorded call for COc1ccc(C(=O)c2ccc(C)cc2)c(O)c1 in this test.
Result block: inactive

Query block: GET /call?item= CC(/C=C/C=C(\C)C(=O)O[C@@H]1O[C@H](CO[C@@H]2O[C@H](CO)[C@@H](O)[C@H](O)[C@H]2O)[C@@H](O)[C@H](O)[C@H]1O)=C\C=C\C=C(C)\C=C\C=C(/C)C(=O)O[C@@H]1O[C@H](CO[C@@H]2O[C@H](CO)[C@@H](O)[C@H](O)[C@H]2O)[C@@H](O)[C@H](O)[C@H]1O returns the recorded outcome of this test.
Result block: inactive

Query block: Which outcome did this test record for the compound CCCCO ?
Result block: inactive

Query block: Record lookup: outcome of this test for C[C@@](Cc1ccc(O)c(O)c1)(NN)C(=O)O ?
Result block: inactive

Query block: Could you please tell me the result logged for c1ccc(-n2cnnn2)cc1 in this assay?
Result block: inactive

Query block: Tell me the assay call for NC(=S)NS(=O)(=O)c1ccc(N)cc1 please.
Result block: inactive

Query block: GET /call?item= O=C(O)COc1ccc(CCNS(=O)(=O)c2ccccc2)s1 returns the recorded outcome of this test.
Result block: inactive

Query block: Which outcome was assigned to CC1CCCCN1CCCOC(=O)c1ccccc1 (stereo not drawn) in this test?
Result block: inactive

Query block: Hey, what did the test say about O=C(OCc1ccccc1)c1cccnc1 ?
Result block: inactive

Query block: Outcome? CC1CC(OC(=O)C(O)c2ccccc2)CC(C)(C)C1 (stereo not drawn)
Result block: inactive

Query block: Please state the recorded outcome for this compound: COc1ccc(C(=O)CCC(=O)O)c2ccccc12
Result block: inactive

Query block: Which result was noted for this compound in the test: Cc1ncc(C[n+]2csc(CCOP(=O)(O)O)c2C)c(N)n1
Result block: inactive

Query block: // return assay outcome for C=C1C(CCl)(CCl)C2(Cl)C(Cl)C(Cl)C1(Cl)C2(Cl)Cl (stereo not drawn)
Result block: active

Query block: Per the records of this test, what outcome belongs to O=C(O)/C=C/C(=O)Nc1ccc(S(=O)(=O)Nc2nccs2)cc1 ?
Result block: inactive

Query block: # lookup: test call for C[C@H](O)CN(C)C
Result block: inactive

Query block: Assay outcome for CC(C)(C)c1ccc2c(S(=O)(=O)O)c(C(C)(C)C)ccc2c1 : what was it?
Result block: inactive

Query block: Could you check what this test reported for CN(C)CCOc1ccc(/C(=C(/CCCl)c2ccccc2)c2ccccc2)cc1 ?
Result block: inactive

Query block: Hey, what did the test say about CCCCC(CC)COS(=O)(=O)O (stereo not drawn) ?
Result block: inactive

Query block: Just curious, what result did Cc1cc(C(=O)NCCc2ccc(S(=O)(=O)NC(=O)NN3CCCCCC3)cc2)no1 get here?
Result block: inactive
